Data origin, for the record: ChEMBL document CHEMBL3217460

Each item that follows carries a reported logP at 1000 µM.
- experimentalProtocol: physchem

moleculeSmiles: C=CCCCCCCC=C
logP at 1000 µM: 4.71

moleculeSmiles: C=CCSSCC=C
logP at 1000 µM: 2.72
